Remaining Percentage values, listed per item
- assay.procedure: Metabolic stability in liver microsomes
- Assay type: in vitro ADME, Sprague-Dawley rat
- measurement.setup: rat LM, -Cofactors, 60 min

compound	unit.spec	Remaining Percentage
COc1cc2ncnc(Nc3cccc(Cl)c3F)c2cc1OCCON1CCN(C)CC1	%	113.38
COc1cc2ncnc(Nc3ccc(F)c(Cl)c3)c2cc1OCCON1CCOCC1	%	109.68
COc1cc2ncnc(Nc3ccc(F)c(Cl)c3)c2cc1OCCCN1CCOCC1 [Gefitinib (1), Gefitinib, reference compound]	%	115.38
COc1cc2ncnc(Nc3ccc(F)c(Cl)c3)c2cc1OCCON1CCN(C)CC1	%	97.68
COc1cc2ncnc(Nc3cccc(Cl)c3F)c2cc1OCCON1CCOCC1	%	118.60

###

Reported IC50, EGFRwt (Homo sapiens, UniProt P00533).
observation.type: IC50 (nM)

molecular.string	system.name	observation.type	measured
COc1cc2ncnc(Nc3cccc(Cl)c3F)c2cc1OCCON1CCN(C)CC1	EGFRwt (Homo sapiens, UniProt P00533)	IC50	3
COc1cc2ncnc(Nc3ccc(F)c(Cl)c3)c2cc1OCCON1CCN(C)CC1	EGFRwt (Homo sapiens, UniProt P00533)	IC50	3
COc1cc2ncnc(Nc3cccc(Cl)c3F)c2cc1OCCON1CCOCC1	EGFRwt (Homo sapiens, UniProt P00533)	IC50	3
COc1cc2ncnc(Nc3ccc(F)c(Cl)c3)c2cc1OCCON1CCOCC1	EGFRwt (Homo sapiens, UniProt P00533)	IC50	5

###

Kd values by entry
- system.name: EGFR del E746_A750 (Homo sapiens, UniProt P00533, DEL746-750)
- Sequence (P00533 with tags, fused parts or gaps DEL746-750): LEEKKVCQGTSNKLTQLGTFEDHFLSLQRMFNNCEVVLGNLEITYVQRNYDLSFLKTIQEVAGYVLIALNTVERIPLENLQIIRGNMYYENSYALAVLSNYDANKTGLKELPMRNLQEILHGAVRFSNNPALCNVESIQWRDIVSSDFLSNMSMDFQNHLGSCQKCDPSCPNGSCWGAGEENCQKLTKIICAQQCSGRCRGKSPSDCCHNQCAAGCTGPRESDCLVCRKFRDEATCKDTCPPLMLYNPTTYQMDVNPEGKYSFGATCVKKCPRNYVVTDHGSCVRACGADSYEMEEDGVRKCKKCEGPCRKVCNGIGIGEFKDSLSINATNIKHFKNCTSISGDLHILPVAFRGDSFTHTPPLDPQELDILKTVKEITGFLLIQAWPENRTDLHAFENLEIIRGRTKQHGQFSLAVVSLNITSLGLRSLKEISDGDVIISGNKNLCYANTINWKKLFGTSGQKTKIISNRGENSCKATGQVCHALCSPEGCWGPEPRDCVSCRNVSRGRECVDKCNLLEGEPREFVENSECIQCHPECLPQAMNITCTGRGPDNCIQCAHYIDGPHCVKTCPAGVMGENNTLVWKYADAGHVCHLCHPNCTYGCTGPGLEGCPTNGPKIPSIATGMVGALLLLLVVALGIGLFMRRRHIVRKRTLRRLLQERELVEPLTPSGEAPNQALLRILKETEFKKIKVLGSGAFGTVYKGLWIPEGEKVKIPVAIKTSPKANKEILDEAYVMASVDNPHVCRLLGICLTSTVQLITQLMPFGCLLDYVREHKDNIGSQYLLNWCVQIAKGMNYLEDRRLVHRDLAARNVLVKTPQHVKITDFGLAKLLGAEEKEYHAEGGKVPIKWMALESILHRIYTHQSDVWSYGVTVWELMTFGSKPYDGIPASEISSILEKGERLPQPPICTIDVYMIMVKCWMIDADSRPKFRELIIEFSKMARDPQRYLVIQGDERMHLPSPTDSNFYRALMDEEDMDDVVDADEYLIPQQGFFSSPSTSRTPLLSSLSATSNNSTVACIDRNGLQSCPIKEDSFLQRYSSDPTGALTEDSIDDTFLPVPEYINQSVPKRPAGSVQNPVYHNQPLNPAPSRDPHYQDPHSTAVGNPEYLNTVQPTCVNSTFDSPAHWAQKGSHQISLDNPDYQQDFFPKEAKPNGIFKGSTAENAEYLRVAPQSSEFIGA
- assay.procedure: KINOMEScan KdELECT Kd determination

molecular.string	Kd
COc1cc2ncnc(Nc3ccc(F)c(Cl)c3)c2cc1OCCON1CCOCC1	0.3 nM
COc1cc2ncnc(Nc3cccc(Cl)c3F)c2cc1OCCON1CCN(C)CC1	< 0.2 nM
COc1cc2ncnc(Nc3ccc(F)c(Cl)c3)c2cc1OCCON1CCN(C)CC1	0.4 nM
COc1cc2ncnc(Nc3cccc(Cl)c3F)c2cc1OCCON1CCOCC1	< 0.2 nM
